- ASSAY COMMENT: yeast display, Sf9 membrane polyspecificity reagent, FACS + sequencing; frameworks hold sequencing errors

QUERY SEQUENCE | polyreactivity (PSR sort gate)
QVQLVESGGGLVQAGGSLRLSCAASGRIFTWYGMGWYSQAPGKERELVARITQRGGTTYYADSVKGRFTISRDNAKNTVYLQINSLKPEDTAFYYCATQYTYTGRRYYSYVDGSRYYYWGQGTQVTVSS | high polyreactivity
QVQLVESGGGLVQAGGSLRLSSAASGSTFVWYAMGWYRQAPGKERELVASISGSGGRTYYADSVKGRFTISRDNAKNTVYLQMNSLKPEDTAVYYCAAYYRKTGYDYWGQGTQVTVSS | high polyreactivity

###

- ASSAY COMMENT: yeast display, Sf9 membrane polyspecificity reagent, FACS + sequencing; frameworks hold sequencing errors
PROPERTY LABEL: polyreactivity (PSR sort gate)

Worked cases, answers included:
QUERY SEQUENCE | polyreactivity (PSR sort gate)
QDQLVESGGGLVQAGGSLRLSCAASGRIFGWYAMGWYRQAPGKERELVAAISNDGSTNYADSVKGRFTISRDNAKNTVYLQMNSLKPEDTAVYYSAARFYRSSYGWYGYWGQGTQVTVSS | high polyreactivity
QVQLVESGGGIVQAGGSLRLSCADSGITFKYYAMGWYRQAPGKERQWVAAISRSGGSTYYADSVKGRFTISRDNAKNTVYLQMNSLIAEDTAVYYCNAELYSVYLGFGYWGQGTQVTVSS | high polyreactivity
QVQLVESGGGLVQAGGSLRLSCAASGIIFGYYAMGWYRQAPGKERELVAGISSSDSTYYADSVKGRFTISRDNAKNTVYLQMNSLKPEDTAVYYCATPVYRSTYEYDYWGQGTQVTVSS | low polyreactivity
QDQLGDSGGGLVQAGGSLSLSCAASGFIFYRYAMGWYRQAPGKERELVAAISGRGGSTYYADSVKGRFTISRDNAKNTVYLQMNSLKPEDTAVYYCATKPRSDSYGNYDYWGQGTQVTVSS | high polyreactivity
QVQLVESGGGLVQAGGSLRLSCAASGSTFSTYAMGWYRQAPGKEREFVAAIRWSGGSTYYADSVKGRFTISRDNAKNTVYLQMNSLKREHTAVYYSAKGIRRWYGGCDYWGQGTKVTVSS | low polyreactivity
QVQLVESGGGLVQAGGSLRLSCAASGSIFSIYAMGWYRQAPGKERDFVASITVTDGSTYYADSVKGRFTISRDNAKNTVYLQMNSLKPEDTAVYYCYADGWYALYEWLAVSGYYWGQGTQVTVSS | low polyreactivity

Lookup result for `QVQLVESGGGLVQAGGSLRLSCAASGSIFRRYAMGWYRQAPGKEREFVAAITRSGGGTYYADSVKGRFTISRDNAKNTVYLQMNSLKPEDSAVYYCAKDVFVQRSRYPEGDYWGQGTQVTVSS` ; measured polyreactivity (PSR sort gate): high polyreactivity

Kindly note the recorded polyreactivity (PSR sort gate) for `QVQLVESGGGLVQAGGRLRLSCAASGSIFRSNVMGWYIQAPGKEREMVASITSGGITYADSVNGRFTISRDNAQNTVYLQMNSLKPEDTAVYYCDTVRRYAMSPYKGRYDYWGQGTQVTVSS` , which is low polyreactivity

Lab note: measured polyreactivity (PSR sort gate) of `QVQLEESGGGLVQAGGSLRLSCAASGFTFTTNAMGWYRQAPGKERELVAAISFSGGTTYYADSVKGRFTISRDNAKNTVYLQMNSLKPEDTAVYYCAAQPGQAWWSTDHDDYWGQGTQVSVSS` was low polyreactivity

Entry under test: `QDQLVESGGGLVQAGGSLLLSCAASGLTVGRYAMGWYRQAPGKERELVAVINGSGGNTYYADSVKGRFTISRDHATNTVYLQMHSLKPEDTAVYYCNVDDWGQGTQVTVSS` . Its polyreactivity (PSR sort gate) was low polyreactivity

// `QVQLVESGGGLVQAGGSLRLSCAPSGSTFRRNAMGWSRQAPGKERELVAANSGSGGRTYYADSVKGRITISRDNAKNTVYLQMNSMKPEDTAVYYCAARSTVYEFFYYRGWWEYYYWGQGTQVTVSS` : polyreactivity (PSR sort gate) value = low polyreactivity

###

- ASSAY COMMENT: yeast display, Sf9 membrane polyspecificity reagent, FACS + sequencing; frameworks hold sequencing errors
PROPERTY LABEL: polyreactivity (PSR sort gate)

In the examples that follow, each entry is paired with its recorded polyreactivity (PSR sort gate).
QUERY SEQUENCE | polyreactivity (PSR sort gate)
QVQLVESGGGLVQAGGSLRLSCAASGSIFFYYAMGWYRQAPGKEREFVAHITSSDASTHYADSVKGRFTISRDNAKNTVYLQMNSLKPEDTAVYYCAADRYPGHRERDYWGQGTQVTVSS | low polyreactivity
QVQLVESGGGLVQAGGSLRLSCATSGSIFVFNAMGWYRQAPGKERELVAAIDTSDDITYYADSVKGRFTISRDNAKNTVYLQMNSLKPEDTAVYYCNAYYTYRFNYWGQGTQVTVSS | high polyreactivity
QVQLVESGGGLVQAGGSLRLSCAASGSIFRYNAMGWYRQAPGKERELVAAISQSGGRTSYADSVKGRFTISRDNAKNTVYLQMNSLKPEDTAVYYCAKRAYGYRSIYRMDYWGQGTQVTVSS | high polyreactivity
QVQLVESGGGLVQAGGSLRLSCAASGSIFARNAMGWYRQAPGTERELVASITWSGASTYYADSVKGRFTMSRDNATNTVSLQLNSLKPDDTAVYYCAATAQKLSLDYSSYEYWGQGTQVTVSS | low polyreactivity

Then there is this sequence:
The reported polyreactivity (PSR sort gate) of the sequence `QVQLVESGGGLVQAGGSLRLSCAASGSIFAGNAMGWYRQAPGKERELVAAISRRGGSTYYADSVKGRFTISRDNAKNTVYLQMNSLKPEDTAVYYCNALLRYAYHAAYGYWGQGPQVTVSS` was high polyreactivity

###

- ASSAY COMMENT: yeast display, Sf9 membrane polyspecificity reagent, FACS + sequencing; frameworks hold sequencing errors
PROPERTY LABEL: polyreactivity (PSR sort gate)

Answered cases to consult:
QUERY SEQUENCE | PROPERTY LABEL | VALUE MEASURED
QVQLVESGGGLVQAGGSLRLSCAASGSTFGYYDMGWYRQAPGKERELVATITKSGGTTRYADSVKGRFTISRDNAKNTVYLQMNSLKPEDTAVYYCAADGTWRLLDDYWGQGTQVTVSS | polyreactivity (PSR sort gate) | low polyreactivity
QVQLVESGGGLVQAGGSLRLSCAASGSIFSYYAMGWYRQAPGKERELVAAITTNTGNTYYADSVKGRFTISRDNAKNTVYLQMNSLKPEDSAVYYCAKSGVADFYYTYYYWGQGTQVNVSS | polyreactivity (PSR sort gate) | low polyreactivity
QVQLVESGGGLVQAGGSLRLSCAASGSIFTIYAMGWYRQAPGKERELVAAIRESSGSTYYADSVKGRFTISRDYAKNTVYFQINSLKPEDTAVYYCAADINYSSYDYWGQGTQVTVSS | polyreactivity (PSR sort gate) | high polyreactivity
QVQLVESGGGLVQAGGSLRLSCAASGFIFSWYAMGWYRQAPGKERELVAAISRSGTRTYYADSVKGRFTISRDNAKNTVYLQMNSLKPEDTAVYYCAAAAKSWLFDYWGQGTQVTVSS | polyreactivity (PSR sort gate) | high polyreactivity
QVQLVDSGGGLVQAGGSLRLSCAAAGSNLSQYAMGWYRQAPGKERELVAAITYGGGSTYYADSVKGRFTISRDNAKKTVHIQMISLKPEDPAVYYCALEFTYWGDPYDYWGQGTQVTVSS | polyreactivity (PSR sort gate) | low polyreactivity
QVQLVESGGGLVQAGGRLRISCAASGFTFTRYAMRWYRQAPGKERELVAAISWSGGSTYYADSVKGRFTISRDNAKNTVSFQMNSLKPEDTAVYYCAKRGTVRQGGYGFWGQGTQVSVSS | polyreactivity (PSR sort gate) | high polyreactivity

Reported polyreactivity (PSR sort gate) of `QVQLVESGGGLVQAGGSLRLSCAASGSISVPNAMGWYRQAPGKERELVAGITSGDSTHYADSVKGRFSISRDNAKNTVYIQMISLKPEDTAVYYCAAKVPEPPSLDESDYWGQGTQVTVSA` : low polyreactivity

Entry `QVQLVESGGGLVQAGGSLRLSCAASGFTFSKYVMGWYRQAPGKERELVAAITTSGGSTYYADSVKGRFTISRDNAKNTVYLQMNSLKPEDTAVYYCNARSLHTSEGDYWGQGTQVTVSS` , polyreactivity (PSR sort gate) reported as low polyreactivity

Field polyreactivity (PSR sort gate) (entry `QVQLVESGGGLVQAGGSLRLSCAASGFIFYRYTMGWYRQAPGKERELVAGISSRGTRTYYADSVKGRFTISRDNAKNTVYLQMNSLKPEDTAVYYCAAVLTQPKKVNYWGQGTQVTVSS` ) reads high polyreactivity

// `QVQLVESGGGLVQAGGSLRLSCSASGIIFSTYAKGWYRQAPGKERELVAAITSTGSTNYADSVKGRFTISRDNAKNTVYLQLNSLKPEDTAVYYCAARYAGPSPTDTGHDYWGQGTQVTVSS` : polyreactivity (PSR sort gate) value = low polyreactivity

Data point: `QVQLVESGGGLVQAGGSLRLSCAASGSTFPYNVMGWYRQAPGKEREFVAAISSSSGSTYYADSVKGRFTISRDNAKNTVYLQMNSLKPEDTAVYYCARRHPRQRQDGKVDYWGQGTQVTVSS` ; polyreactivity (PSR sort gate) = low polyreactivity
